Entry source: patent US20230035403A1

targetDesc: HLA-B*08:01 (human)
testProtocol: UV-induced peptide exchange, HLA class I ELISA; Pos peptide = 100%
runConditions: remark: other sources report otherwise
Entries and their exchange rate with Pos peptide values follow.

The cases that follow already have their exchange rate with Pos peptide on record.
>  <binder>
YLRRQKRLK (here or on the partner: biotinylated heavy chain) [P60 9-mer …]

>  <readoutKind>
exchange rate with Pos peptide

>  <observed>
10.2%

$$$$
>  <binder>
FLFLLLPLS (here or on the partner: biotinylated heavy chain) [P87 9-mer …]

>  <readoutKind>
exchange rate with Pos peptide

>  <observed>
3.1%

$$$$
>  <binder>
RAKCKFSIL (here or on the partner: biotinylated heavy chain) [P56 9-mer …]

>  <readoutKind>
exchange rate with Pos peptide

>  <observed>
38%

$$$$

Just so you know, measured exchange rate with Pos peptide for IPVLTRWPL (here or on the partner: biotinylated heavy chain) [P19 9-mer …] came out at 14.5%
